target-or-test-system: Full-length (FL)-PRMT5-MEP50 enzyme complex (Homo sapiens)
Construct: Full-length (FL)-PRMT5-MEP50 enzyme complex (recombinant proteins from baculovirus-transfected Sf21 cells: FL-PRMT5; MW=73837 kDa and FL-MEP50; MW=38614); made in house; host or cells: baculovirus-transfected Sf21 cells
assay-notes: PRMT5-MEP50 Enzyme Methylation Assay (Version A)
Assay type: biochemical
applied-conditions: single EC50 = 4 parameter single site sigmoidal fit; EC50 1 = first value of 7 parameter biphasic fit; read-out: Enzyme Methylation Assay Version A (EC50 or EC50 1)
property: EC50 (nM)

Some solved entries appear below for comparison.
compound | target-or-test-system | EC50, nM
COc1nc2nc(C(=O)N3CC[C@]4(Cc5ccccc5CN4)[C@H](O)C3)cn2cc1Br (single isomer, unassigned) | Full-length (FL)-PRMT5-MEP50 enzyme complex (Homo sapiens) | 0.556
O=C(c1ccc2c(O)c(C3CC3)cnc2c1)N1CC[C@]2(Cc3ccccc3CN2)[C@H](O)C1 | Full-length (FL)-PRMT5-MEP50 enzyme complex (Homo sapiens) | 13.5
COC(C)c1cc(C(C)C)cn2cc(C(=O)N3CC[C@]4(Cc5ccccc5CN4)[C@H](O)C3)nc12 (stereo partly shown) | Full-length (FL)-PRMT5-MEP50 enzyme complex (Homo sapiens) | 0.464

a = O=C(c1nccn2nccc12)N1CC[C@]2(Cc3ccccc3CN2)[C@H](O)C1
b = O=C(c1cn2cc(Br)nc(OCC3CCCO3)c2n1)N1CC[C@]2(Cc3ccccc3CN2)[C@H](O)C1 (single isomer, unassigned) [Example 100]
Request: // compare measured EC50 between a and b ; output the lower one // caller expects the label of the chosen entry
Result: b

a = CO[C@H](C)c1cc(N2Cc3cnn(C)c3C2)cn2cc(C(=O)N3CC[C@]4(Cc5ccccc5CN4)[C@H](O)C3)nc12
b = CC(O)c1cc(C(F)(F)F)cn2cc(C(=O)N3CC[C@]4(Cc5ccccc5CN4)[C@H](O)C3)nc12 (single isomer, unassigned) [Example 108]
Request: Lab notebook, comparison: a versus b , higher EC50 goes to which? Give the label under which the chosen entry appears.
Result: a

----------
target-or-test-system: Full-length (FL)-PRMT5-MEP50 enzyme complex (Homo sapiens, UniProt O14744)
Construct: Full-length (FL)-PRMT5-MEP50 enzyme complex (recombinant proteins from baculovirus-transfected Sf21 cells: FL-PRMT5; MW=73837 kDa and FL-MEP50; MW=38614); made in house; host or cells: baculovirus-transfected Sf21 cells
Sequence (O14744 whole entry): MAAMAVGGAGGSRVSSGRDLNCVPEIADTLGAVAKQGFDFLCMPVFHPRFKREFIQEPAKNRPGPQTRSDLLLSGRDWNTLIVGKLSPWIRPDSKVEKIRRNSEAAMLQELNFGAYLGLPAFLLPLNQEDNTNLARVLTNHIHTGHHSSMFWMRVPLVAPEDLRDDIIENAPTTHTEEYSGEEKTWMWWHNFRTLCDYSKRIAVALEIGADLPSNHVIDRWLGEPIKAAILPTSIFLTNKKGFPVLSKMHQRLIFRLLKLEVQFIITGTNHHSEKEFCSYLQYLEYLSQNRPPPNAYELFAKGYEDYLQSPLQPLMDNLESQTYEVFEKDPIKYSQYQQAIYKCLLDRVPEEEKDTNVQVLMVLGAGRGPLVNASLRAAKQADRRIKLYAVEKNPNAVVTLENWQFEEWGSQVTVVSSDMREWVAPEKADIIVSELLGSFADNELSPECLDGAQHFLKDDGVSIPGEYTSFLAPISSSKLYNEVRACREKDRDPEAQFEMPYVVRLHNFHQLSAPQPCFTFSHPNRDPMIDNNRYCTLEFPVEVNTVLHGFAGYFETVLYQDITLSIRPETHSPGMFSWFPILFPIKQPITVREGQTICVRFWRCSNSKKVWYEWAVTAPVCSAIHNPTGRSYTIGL
Sequence (Q9BQA1 whole entry partner): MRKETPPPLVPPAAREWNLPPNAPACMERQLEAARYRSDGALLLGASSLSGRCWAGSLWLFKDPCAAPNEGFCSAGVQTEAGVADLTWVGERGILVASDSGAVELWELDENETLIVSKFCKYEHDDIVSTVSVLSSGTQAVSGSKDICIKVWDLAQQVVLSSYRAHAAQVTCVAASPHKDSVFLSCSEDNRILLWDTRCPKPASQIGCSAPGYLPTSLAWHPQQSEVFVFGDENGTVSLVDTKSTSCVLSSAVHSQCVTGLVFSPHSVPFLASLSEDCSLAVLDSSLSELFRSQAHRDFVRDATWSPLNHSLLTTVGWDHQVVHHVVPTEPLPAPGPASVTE
assay-notes: PRMT5-MEP50 Enzyme Methylation Assay (Version A)
Assay type: biochemical
applied-conditions: second value of 7 parameter biphasic fit; read-out: Enzyme Methylation Assay Version A (EC50 2)
property: EC50 (nM)

Use the examples below as a reference point.
compound | reading-unit | EC50
CC(O)c1cc(Br)cn2cc(C(=O)N3CC[C@]4(Cc5ccccc5CN4)[C@H](O)C3)nc12 (single isomer, unassigned) [Example 33] | nM | 215
CC1OC(=O)Nc2cc(C(=O)N3CC[C@]4(Cc5ccccc5CN4)[C@H](O)C3)ccc21 (some centres unmarked) | nM | 733
COC[C@H]1C[C@@H](C(F)(F)F)Cn2cc(C(=O)N3CC[C@]4(Cc5ccccc5CN4)[C@H](O)C3)nc21 (single isomer, unassigned) | nM | 3980
CC(C)Oc1nc(Br)cn2cc(C(=O)N3CC[C@]4(Cc5ccccc5CN4)[C@H](O)C3)nc12 | nM | 88.6
CC1CC(C(F)(F)F)Cn2cc(C(=O)N3CC[C@]4(Cc5ccccc5CN4)[C@H](O)C3)nc21 (single isomer, unassigned) [Example 167] | nM | 3630
COc1ccc(C)cc1-n1cnc(C(=O)N2CC[C@]3(Cc4ccccc4CN3)[C@H](O)C2)c1 | nM | 343
Cc1cc(C(F)F)n2nc(C(=O)N3CC[C@]4(Cc5ccccc5CN4)[C@H](O)C3)nc2n1 | nM | 69200
COC(C)c1cc(Br)cn2cc(C(=O)N3CC[C@]4(Cc5cc(Cl)ccc5CN4)[C@H](O)C3)nc12 (single isomer, unassigned) | nM | 398

P = O=C(c1cn2cc(Br)cc(F)c2n1)N1CC[C@]2(Cc3ccccc3CN2)[C@H](O)C1
Q = COC(C)c1cc(C(F)(F)F)cn2cc(C(=O)N3CC[C@]4(Cc5ccccc5CN4)[C@H](O)C3)nc12 (some centres unmarked)
R = O=C(c1cn(C(F)F)cn1)N1CC[C@]2(Cc3ccccc3CN2)[C@H](O)C1
S = CC(C)N1CCNc2cc(C(=O)N3CC[C@]4(Cc5ccccc5CN4)[C@H](O)C3)ccc2C1=O
Request: Sort ascending by EC50. Returns: the labels listed in the requested order.
Result: P, Q, S, R

1 = Cc1ccc(C(=O)N2CC[C@]3(Cc4ccccc4CN3)[C@H](O)C2)c(O)n1
2 = O=C(c1cn2cc(Cl)cc(Cl)c2n1)N1CC[C@]2(Cc3ccccc3CN2)[C@H](O)C1
Request: Kindly compare 1 with 2 and tell me which has the lower EC50 figure. Reply briefly: the label of your chosen item.
Result: 2
